target: Nitric oxide synthase 3 (Bos taurus, UniProt P29473); test: Inhibitory concentration tested against bovine endothelial nitric oxide synthase (eNOS)
Sequence (P29473 whole entry): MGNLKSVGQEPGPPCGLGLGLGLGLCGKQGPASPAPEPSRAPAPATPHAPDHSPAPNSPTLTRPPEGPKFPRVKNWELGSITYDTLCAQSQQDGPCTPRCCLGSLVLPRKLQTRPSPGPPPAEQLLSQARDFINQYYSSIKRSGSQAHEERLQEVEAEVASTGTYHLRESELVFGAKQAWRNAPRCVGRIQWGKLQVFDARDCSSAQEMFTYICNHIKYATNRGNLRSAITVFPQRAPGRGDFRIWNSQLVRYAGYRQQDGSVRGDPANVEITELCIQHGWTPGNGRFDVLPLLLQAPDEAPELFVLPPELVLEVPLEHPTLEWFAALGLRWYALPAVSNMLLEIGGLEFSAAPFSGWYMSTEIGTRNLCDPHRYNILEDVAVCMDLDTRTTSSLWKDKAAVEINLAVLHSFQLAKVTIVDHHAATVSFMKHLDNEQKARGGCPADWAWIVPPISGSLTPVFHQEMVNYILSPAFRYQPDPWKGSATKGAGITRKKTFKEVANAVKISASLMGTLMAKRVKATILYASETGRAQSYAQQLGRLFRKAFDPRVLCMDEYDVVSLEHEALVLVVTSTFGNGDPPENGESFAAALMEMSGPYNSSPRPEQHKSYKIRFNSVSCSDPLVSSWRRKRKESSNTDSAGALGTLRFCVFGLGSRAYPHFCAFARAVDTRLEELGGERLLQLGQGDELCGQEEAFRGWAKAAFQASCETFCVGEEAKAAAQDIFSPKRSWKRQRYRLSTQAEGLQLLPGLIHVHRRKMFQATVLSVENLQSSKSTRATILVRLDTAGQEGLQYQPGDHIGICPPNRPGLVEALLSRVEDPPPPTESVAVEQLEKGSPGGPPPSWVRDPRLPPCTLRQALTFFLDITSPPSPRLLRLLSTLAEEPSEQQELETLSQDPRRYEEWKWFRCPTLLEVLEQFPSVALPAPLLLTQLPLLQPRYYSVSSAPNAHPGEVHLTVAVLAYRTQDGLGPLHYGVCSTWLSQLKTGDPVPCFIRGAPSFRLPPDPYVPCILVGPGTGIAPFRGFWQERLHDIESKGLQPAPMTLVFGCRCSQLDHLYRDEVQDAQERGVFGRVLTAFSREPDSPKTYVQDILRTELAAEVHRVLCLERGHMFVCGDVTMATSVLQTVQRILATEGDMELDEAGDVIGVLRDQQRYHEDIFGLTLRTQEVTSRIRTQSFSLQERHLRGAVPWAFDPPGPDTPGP
MEASURE_NAME: pIC50
# reply with the number alone; pIC50 is -log10 of concentration in mol/L

Qu. Item N=C(Nc1ccccc1)c1cccs1 has what recorded pIC50?
Ans. 4.86

Qu. Item under review: Cl.Cl.Cl.N=C(Nc1ccc(CCNCc2cccc(Cl)c2)cc1)c1cccs1 . Reported pIC50?
Ans. 5.14

Qu. Looking for the measured pIC50 of N=C(Nc1cccc(CN)c1)c1cccs1 , can you help?
Ans. 4.62

Qu. Which pIC50 reading was recorded for the molecule CC(C)(C)c1cc(CNCc2cccc(NC(=N)c3cccs3)c2)cc(C(C)(C)C)c1O ?
Ans. 4.80

Qu. // lookup pIC50 for N=C(Nc1ccc(CCN)cc1)c1cccs1
Ans. 4.60

Qu. Consider the molecule shown here: CC(C)(C)c1cc(CCCNCc2cccc(NC(=N)c3cccs3)c2)cc(C(C)(C)C)c1O What is its recorded pIC50?
Ans. 5.31

Qu. # lookup: pIC50 of CC(C)c1cc(CCCNCc2cccc(NC(=N)c3cccs3)c2)cc(C(C)C)c1O
Ans. 5.09

Qu. For the molecule shown here, CC(C)(C)c1cc(CCNCc2cccc(N=C(N)c3cccs3)c2)cc(C(C)(C)C)c1O , give the reported pIC50.
Ans. 4.81

Qu. // lookup pIC50 for N=C(Nc1ccc(CN)cc1)c1cccs1
Ans. 4.43

* * *

target: Nitric oxide synthase 1 (Rattus norvegicus, UniProt P29476); experiment: Inhibitory concentration tested against neuronal nitric oxide synthase (nNOS ) from rat cerebellum; format: tissue-based
Sequence (P29476 whole entry): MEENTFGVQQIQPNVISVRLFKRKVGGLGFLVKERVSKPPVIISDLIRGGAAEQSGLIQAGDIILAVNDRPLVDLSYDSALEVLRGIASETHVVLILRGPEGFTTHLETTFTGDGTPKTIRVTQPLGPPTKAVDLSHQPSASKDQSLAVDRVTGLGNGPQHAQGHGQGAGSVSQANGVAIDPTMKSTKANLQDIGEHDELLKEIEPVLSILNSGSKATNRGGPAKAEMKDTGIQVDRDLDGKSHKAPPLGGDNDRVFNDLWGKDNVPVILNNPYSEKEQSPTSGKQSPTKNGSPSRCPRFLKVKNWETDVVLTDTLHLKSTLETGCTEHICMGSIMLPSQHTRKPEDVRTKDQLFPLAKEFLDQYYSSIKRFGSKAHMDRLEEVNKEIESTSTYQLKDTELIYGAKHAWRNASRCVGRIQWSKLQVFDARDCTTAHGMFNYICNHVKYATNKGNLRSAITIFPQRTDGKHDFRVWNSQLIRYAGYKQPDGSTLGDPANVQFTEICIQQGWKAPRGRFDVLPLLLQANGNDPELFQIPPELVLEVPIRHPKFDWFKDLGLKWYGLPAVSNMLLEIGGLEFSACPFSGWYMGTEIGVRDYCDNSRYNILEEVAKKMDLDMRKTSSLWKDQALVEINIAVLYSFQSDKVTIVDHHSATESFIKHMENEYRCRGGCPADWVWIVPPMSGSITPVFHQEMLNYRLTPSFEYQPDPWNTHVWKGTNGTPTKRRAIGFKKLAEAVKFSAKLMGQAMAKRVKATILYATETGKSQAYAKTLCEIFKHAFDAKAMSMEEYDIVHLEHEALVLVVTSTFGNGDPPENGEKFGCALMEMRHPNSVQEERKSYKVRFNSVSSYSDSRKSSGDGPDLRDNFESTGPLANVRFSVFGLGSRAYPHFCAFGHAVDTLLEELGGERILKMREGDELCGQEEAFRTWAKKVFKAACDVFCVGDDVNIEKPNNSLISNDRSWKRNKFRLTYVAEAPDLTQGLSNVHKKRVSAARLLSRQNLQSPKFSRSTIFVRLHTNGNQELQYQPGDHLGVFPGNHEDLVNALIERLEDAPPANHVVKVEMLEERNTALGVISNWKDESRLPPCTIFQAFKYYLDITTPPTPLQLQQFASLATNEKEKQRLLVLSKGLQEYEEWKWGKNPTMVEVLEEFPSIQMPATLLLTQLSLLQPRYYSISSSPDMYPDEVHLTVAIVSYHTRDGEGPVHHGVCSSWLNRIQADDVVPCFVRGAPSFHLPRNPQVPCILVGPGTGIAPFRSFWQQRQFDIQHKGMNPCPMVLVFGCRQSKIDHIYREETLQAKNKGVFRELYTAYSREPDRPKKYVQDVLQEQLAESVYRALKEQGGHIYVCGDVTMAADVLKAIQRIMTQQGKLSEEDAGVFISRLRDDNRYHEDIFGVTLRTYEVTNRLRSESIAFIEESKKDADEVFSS
MEASURE_NAME: pIC50
Lab note — pIC50 values are minus log10 of concentrations in M.

Qu. Sample CC(C)(C)c1cc(CCCNCc2cccc(NC(=N)c3cccs3)c2)cc(C(C)(C)C)c1O — what was its pIC50?
Ans. 6.33

Qu. Could you tell me which pIC50 is on file for N=C(Nc1ccccc1)c1cccs1 ?
Ans. 5.66

Qu. Which measured pIC50 value corresponds to N/C(=N/c1ccc(N)cc1)c1cccs1 ?
Ans. 4.74

Qu. Reported pIC50, compound N=C(Nc1cccc(CN)c1)c1cccs1 : ____
Ans. 7.30

Qu. pIC50 lookup needed for CC(C)(C)c1cc(CNCc2cccc(NC(=N)c3cccs3)c2)cc(C(C)(C)C)c1O , thanks.
Ans. 5.80

Qu. Requested field: pIC50. Item: Cl.Cl.Cl.N=C(Nc1ccc(CCNCc2cccc(Cl)c2)cc1)c1cccs1
Ans. 6.92

Qu. // returns reported pIC50 for input N=C(Nc1ccc(CCN)cc1)c1cccs1
Ans. 7.10

Qu. Request the reported pIC50 associated with CC(C)c1cc(CCCNCc2cccc(NC(=N)c3cccs3)c2)cc(C(C)C)c1O
Ans. 6.92

Qu. // query pIC50 value for entry N=C(Nc1ccc(CN)cc1)c1cccs1
Ans. 6.70

Qu. Query: pIC50; subject: CC(C)(C)c1cc(CCNCc2cccc(N=C(N)c3cccs3)c2)cc(C(C)(C)C)c1O
Ans. 5.85

* * *

biological target: Nitric oxide synthase 3 (Bos taurus) (UniProt P29473); assay: Selectivity ratio for inhibition of Endothelial Nitric oxide synthase to that of Neuronal Nitric oxide synthase in rat
MEASURE_NAME: Selectivity ratio
The response must contain the number and no unit.

Qu. Value lookup for Selectivity ratio; key = N=C(Nc1ccc(CN)cc1)c1cccs1
Ans. 195

Qu. Could you tell me which Selectivity ratio is on file for CC(C)(C)c1cc(CCNCc2cccc(NC(=N)c3cccs3)c2)cc(C(C)(C)C)c1O ?
Ans. 11.1

Qu. Can you look up the measured Selectivity ratio of N=C(Nc1ccccc1)c1cccs1 for me?
Ans. 6.3

Qu. Consider the compound shown here: N=C(Nc1ccc(CCN)cc1)c1cccs1 What is its recorded Selectivity ratio?
Ans. 312

Qu. Field request: Selectivity ratio | item: CC(C)(C)c1cc(CNCc2cccc(NC(=N)c3cccs3)c2)cc(C(C)(C)C)c1O
Ans. 9.8

Qu. // Selectivity ratio lookup, key: CC(C)c1cc(CCCNCc2cccc(NC(=N)c3cccs3)c2)cc(C(C)C)c1O
Ans. 67.5

Qu. Bench note: what Selectivity ratio did CC(C)(C)c1cc(CCCNCc2cccc(NC(=N)c3cccs3)c2)cc(C(C)(C)C)c1O show?
Ans. 10.4

Qu. Entry N=C(Nc1cccc(CN)c1)c1cccs1 : reported Selectivity ratio = ?
Ans. 484

Qu. Report Selectivity ratio for Cl.Cl.Cl.N=C(Nc1ccc(CCNCc2cccc(Cl)c2)cc1)c1cccs1 please.
Ans. 60
